- Measurement Target: Beta-secretase 1 (Homo sapiens, UniProt P56817)
- Sequence (P56817 whole entry): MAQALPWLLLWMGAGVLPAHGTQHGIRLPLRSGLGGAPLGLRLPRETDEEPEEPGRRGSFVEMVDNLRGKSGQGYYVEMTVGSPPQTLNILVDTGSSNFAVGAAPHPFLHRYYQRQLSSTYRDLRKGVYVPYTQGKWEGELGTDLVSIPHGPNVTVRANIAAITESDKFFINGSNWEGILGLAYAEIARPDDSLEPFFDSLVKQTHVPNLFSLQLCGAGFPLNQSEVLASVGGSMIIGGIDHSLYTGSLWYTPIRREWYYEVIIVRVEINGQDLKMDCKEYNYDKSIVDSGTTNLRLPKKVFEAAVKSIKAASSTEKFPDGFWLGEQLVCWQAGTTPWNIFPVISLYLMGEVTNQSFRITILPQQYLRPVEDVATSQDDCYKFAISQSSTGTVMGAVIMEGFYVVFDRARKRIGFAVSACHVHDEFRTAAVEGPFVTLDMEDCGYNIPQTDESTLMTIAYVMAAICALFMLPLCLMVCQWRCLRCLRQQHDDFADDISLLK
- Measurement Description: Inhibition of human BACE1 in HEK293 cells expressing APP assessed as decrease in amyloid beta-40 level after 18 to 20 hrs
molecules and their reported IC50

{"Chemical Structure": "C[C@@]1(c2cc(-c3cc(-c4ncc(Cl)cn4)no3)ccc2F)C[S@]2(=O)=NCCCCN2C(N)=N1", "Measurement Target": "Beta-secretase 1 (Homo sapiens, UniProt P56817)", "IC50 / nM": 9.5}
{"Chemical Structure": "C[C@@]1(c2cc(NC(=O)c3ccc(C#N)cn3)ccc2F)C[S@]2(=O)=NCCCCN2C(N)=N1", "Measurement Target": "Beta-secretase 1 (Homo sapiens, UniProt P56817)", "IC50 / nM": 2}
{"Chemical Structure": "C[C@@]1(c2cc(-c3cn(-c4ccc(C#N)cn4)nn3)ccc2F)C[S@]2(=O)=NCCCCN2C(N)=N1", "Measurement Target": "Beta-secretase 1 (Homo sapiens, UniProt P56817)", "IC50 / nM": 9.5}
